# EXPERIMENTAL_SYSTEM: GSPT1 (Homo sapiens)
# Construct: Whole cell extract was prepared with RIPA buffer according to manufacturer's protocol; endogenous in cells; host or cells: Jurkat cells
# Sequence (P15170 whole entry): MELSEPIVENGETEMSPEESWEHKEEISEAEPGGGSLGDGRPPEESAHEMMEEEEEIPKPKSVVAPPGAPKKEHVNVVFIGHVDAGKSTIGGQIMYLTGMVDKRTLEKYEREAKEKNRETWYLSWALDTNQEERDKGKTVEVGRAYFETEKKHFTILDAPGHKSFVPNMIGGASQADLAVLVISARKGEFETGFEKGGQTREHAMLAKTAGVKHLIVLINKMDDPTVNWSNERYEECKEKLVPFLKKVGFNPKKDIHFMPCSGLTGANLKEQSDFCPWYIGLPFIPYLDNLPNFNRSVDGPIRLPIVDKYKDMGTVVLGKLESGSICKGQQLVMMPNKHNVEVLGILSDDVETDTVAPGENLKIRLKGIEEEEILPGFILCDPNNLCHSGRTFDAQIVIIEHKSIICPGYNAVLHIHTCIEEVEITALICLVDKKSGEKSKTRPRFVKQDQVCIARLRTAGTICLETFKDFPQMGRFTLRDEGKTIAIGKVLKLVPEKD
# ASSAY_TEXT: Western blot analysis of GSPT1 protein levels in Jurkat cells
# Format: cell-based
# PARTICULARS: 1 uM compound, DMSO = 100.00
MEASURED_PARAMETER: GSPT1 protein level (% of DMSO control) at 1 µM (%)

A: Cc1ccc(NC(=O)NCc2ccc3c(c2C)CN([C@H]2CCCC(=O)NC2=O)C3=O)cc1Cl [Compound 16]
B: COc1ccc(NC(=O)NCc2ccc3c(c2)CN([C@H]2CCCC(=O)NC2=O)C3=O)cc1Cl [Compound 8]
C: Cc1ccc(NC(=O)NCc2cccc3c2CN([C@H]2CCCC(=O)NC2=O)C3=O)cc1Cl [Compound 17]
Req: Order the entries above by descending GSPT1 protein level (% of DMSO control) at 1 µM. Note for the reader: the ranking is given by listing the labels in the order requested.
Resp: C, A, B
(C: 80.5%, A: 39.3%, B: 14.9%)

P: O=C1CCC[C@H](N2Cc3cc(CNC(=O)Nc4ccc(C(F)(F)F)c(Cl)c4)ccc3C2=O)C(=O)N1 [Compound 12]
Q: O=C1CCC[C@H](N2Cc3cc(CNC(=O)Nc4ccc(F)c(Cl)c4)ccc3C2=O)C(=O)N1 [Compound 6]
R: O=C(Cc1cccc(CN2CCOCC2)c1)NCc1ccc2c(c1)CN([C@H]1CCCC(=O)NC1=O)C2=O [Compound 14]
Req: Number of molecules to sort: 3. Sort criterion: GSPT1 protein level (% of DMSO control) at 1 µM, ascending. Order the labels as requested and give them as your answer.
Resp: P, Q, R
(P: 18.6%, Q: 37.9%, R: 82.8%)

---

# Test system: H1048 cells
# ASSAY_TEXT: Cell viability assay (CellTiter-Glo), H1048 cells
# Type: cell-based
# PARTICULARS: Homo sapiens, NCI-H1048, 72 h; H1048, 10 μM, 3 days
Reported viability at 10 µM values follow for various compounds
All answers are understood in %, so give the number only.

RECORD_SMILES: Cc1ccc(NC(=O)NCc2ccc3c(c2C)CN([C@H]2CCCC(=O)NC2=O)C3=O)cc1Cl
viability at 10 µM, %: 3.93
//
RECORD_SMILES: COc1ccc(NC(=O)NCc2ccc3c(c2)CN([C@H]2CCCC(=O)NC2=O)C3=O)cc1Cl
viability at 10 µM, %: 4.4
//
RECORD_SMILES: O=C(Cc1ccc(Cl)c(CN2CCOCC2)c1)NCc1ccc2c(c1)CN([C@H]1CCCC(=O)NC1=O)C2=O
viability at 10 µM, %: 35

Req: What value of viability at 10 µM has been reported for the following compound? `Cc1ccc(NC(=O)NCc2ccc3c(c2)CN([C@H]2CCCC(=O)NC2=O)C3=O)cc1Cl`
Resp: 3.51

Req: Now consider `Cc1ccc(CCNC(=O)NCc2ccc3c(c2)CN([C@H]2CCCC(=O)NC2=O)C3=O)cc1Cl` and answer again.
Resp: 3.09

Req: Okay, and `O=C1CCC[C@H](N2Cc3cc(CNC(=O)Nc4ccc(F)c(Cl)c4)ccc3C2=O)C(=O)N1` ?
Resp: 5.42

Req: Now give it for `CCCNC(=O)NCc1ccc2c(c1)CN([C@H]1CCCC(=O)NC1=O)C2=O` too.
Resp: 97.5

Req: # iterate: `COc1ccc(CC(=O)NCc2ccc3c(c2)CN([C@H]2CCCC(=O)NC2=O)C3=O)cc1Cl`
Resp: 44.2

Req: Also `Cc1ccc(CNC(=O)NCc2ccc3c(c2)CN([C@H]2CCCC(=O)NC2=O)C3=O)cc1Cl` ?
Resp: 4.28

Provenance of the data: patent US10857155B2
